The measured values listed here are drawn from patent US11076595B2.

Listing of recorded Weed suppression rate (%) Echinochloa crus-galli by entry.
test system: Echinochloa crus-galli; assay: Test Example 11: herbicidal effect test by soil treatment in paddy field; type: in vivo; settings: 120 g/10a active ingredient, 14 days after treatment
State just the number; it will be interpreted in %.

Fill in the blank: the reported Weed suppression rate (%) Echinochloa crus-galli of CC(C)N(C(=O)n1cnn(S(=O)(=O)C2CC2)c1=O)c1ccc(Cl)cn1 is ____.
100

Look up Weed suppression rate (%) Echinochloa crus-galli for this molecule: CC(C)N(C(=O)n1cnn(S(=O)(=O)c2ccccc2)c1=O)c1ccc(F)cc1
90

Report Weed suppression rate (%) Echinochloa crus-galli for Cc1ccc(N(C(=O)n2cnn(S(=O)(=O)c3ccccc3Cl)c2=O)C(C)C)c(F)c1 please.
90

Lab note: next molecule to report on.
Given the molecule CC(C)N(C(=O)n1cnn(S(=O)(=O)CCl)c1=O)c1ccc(C(F)(F)F)cc1F , what is its reported Weed suppression rate (%) Echinochloa crus-galli?
100
